subject of test: T1, Tau peptide Start 3 Stop 22 (Synthetic linear peptide immobilised on a Pepscan array; the attachment to the array cannot be carried by the letters.)
T1 peptide: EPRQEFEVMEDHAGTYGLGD
protocol text: Pepscan ELISA on an array of linear 20-mer Tau 441 peptides
Parameters: unit not given here
outcome measure: peptide ELISA signal (no name or unit printed)
Quick one: just the number, no unit, thanks!

Task: Consider the binder shown here: PT53 monoclonal antibody (recombinant, mouse IgG2a/kappa) (antibody, V domains shown, also called PT50/PT53) VH: EVKLMESGGGLVQPGASLRLSCAASGFTFTDYYMSWVRQPPGKAPEWLALIRNKANGYTTKYAASVKGRFTISRDNSQNILYLQMNTLRAEDSATYYCVKAVWFAYWGQGTLVTVSA VL: DIVITQDELSNPVTSGESVSISCRSSKSLLYKDGKTYLNWFLQRPGQSPQLLIYLMSTRASGVSDRFSGSGSGTDFTLEISRVKAEDVGVYYCLQLVEYPYTFGGGTKLEIKR What is its recorded peptide ELISA signal (no name or unit printed)?
Result: 44
